B1: KAT8 regulatory NSL complex subunit 2, residues 28 to 91; numbered along this chain, Q9H9L4 (parent)
chain: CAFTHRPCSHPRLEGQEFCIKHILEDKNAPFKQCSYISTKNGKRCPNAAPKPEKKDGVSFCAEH

variants of: B1; assay: abundance fitness (aPCA) (normalised: wild type 0, dead -1); higher = more abundant; growth selection in yeast, the domain comes from the species named; details: Homo sapiens
READOUT KIND: abundance fitness

[[record]]
mutation_spec = "S38K"
meas_value = -0.084

[[record]]
mutation_spec = "H22C"
meas_value = -0.383


// next entry
Provide one value: measured abundance fitness of `E17C`
-0.112
